target: Tyrosine-protein kinase JAK1 (Homo sapiens, UniProt P23458); assay: Binding affinity to JAK1 (unknown origin) by ADP-glo kinase assay
Sequence (P23458 whole entry): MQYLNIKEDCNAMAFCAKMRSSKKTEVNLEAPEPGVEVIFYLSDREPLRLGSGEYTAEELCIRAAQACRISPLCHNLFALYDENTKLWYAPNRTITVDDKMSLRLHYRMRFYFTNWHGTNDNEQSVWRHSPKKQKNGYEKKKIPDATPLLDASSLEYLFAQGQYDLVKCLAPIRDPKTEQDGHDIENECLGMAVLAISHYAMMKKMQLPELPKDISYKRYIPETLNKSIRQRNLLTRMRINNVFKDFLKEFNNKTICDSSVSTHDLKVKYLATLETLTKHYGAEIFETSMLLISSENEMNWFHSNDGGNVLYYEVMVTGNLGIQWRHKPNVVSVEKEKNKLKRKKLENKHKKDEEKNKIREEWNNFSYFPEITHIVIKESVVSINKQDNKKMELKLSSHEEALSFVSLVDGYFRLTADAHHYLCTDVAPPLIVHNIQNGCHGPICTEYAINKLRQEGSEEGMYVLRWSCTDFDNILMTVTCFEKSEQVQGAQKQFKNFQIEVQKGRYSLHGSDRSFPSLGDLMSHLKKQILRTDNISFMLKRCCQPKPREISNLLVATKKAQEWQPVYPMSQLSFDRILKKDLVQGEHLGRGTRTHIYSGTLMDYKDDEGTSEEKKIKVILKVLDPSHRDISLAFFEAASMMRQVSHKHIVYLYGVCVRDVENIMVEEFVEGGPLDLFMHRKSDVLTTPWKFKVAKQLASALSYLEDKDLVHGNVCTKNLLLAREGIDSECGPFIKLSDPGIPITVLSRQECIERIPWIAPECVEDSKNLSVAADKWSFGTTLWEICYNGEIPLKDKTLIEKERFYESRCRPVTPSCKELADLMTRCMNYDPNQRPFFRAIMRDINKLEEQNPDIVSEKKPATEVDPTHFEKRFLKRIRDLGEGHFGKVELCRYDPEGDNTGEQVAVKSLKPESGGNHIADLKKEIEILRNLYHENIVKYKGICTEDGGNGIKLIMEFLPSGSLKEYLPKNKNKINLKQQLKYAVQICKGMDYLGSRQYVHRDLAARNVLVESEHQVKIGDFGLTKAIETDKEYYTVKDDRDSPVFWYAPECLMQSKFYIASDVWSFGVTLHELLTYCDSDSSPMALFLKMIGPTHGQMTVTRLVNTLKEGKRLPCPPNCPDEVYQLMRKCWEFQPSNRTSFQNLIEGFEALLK
pIC50: −log10 of the molar value.
reported property: pIC50

Enquiry: Recall the reported pIC50 of CNC(=O)c1cnc(Nc2ccc(C(=O)NC3CCC(Nc4ccc5c(c4)C(=O)N(C4CCC(=O)NC4=O)C5=O)CC3)cn2)cc1Nc1cccc(-c2ncc(F)cn2)c1OC (stereo unspecified) when tested on Tyrosine-protein kinase JAK1 (Homo sapiens, UniProt P23458).
Return: < 5.00

###

test: AUC (0 to t) in male ICR mouse at 5 mg/kg, ip measured up to 24 hrs by LC-MS/MS analysis; type: ADME, organism-based; settings: in vivo
reported property: AUC(0-t) at 24 h (ng·h/mL)
The response must be a number in ng·h/mL with no trailing unit.

Enquiry: Check the records and state AUC(0-t) at 24 h for CNC(=O)c1cnc(Nc2ccc(C(=O)NC3CCC(Nc4ccc5c(c4)C(=O)N(C4CCC(=O)NC4=O)C5=O)CC3)cn2)cc1Nc1cccc(-c2ncc(F)cn2)c1OC (stereo unspecified)
Return: 4770
